From: patent US8492376B2

Molecular target: human V1a receptor (Homo sapiens)
Construct: expressed in transfected cells; host or cells: HEK293 cells, transiently transfected; cell membranes
Experiment: human V1a receptor binding studies (3H-Vasopressin, SPA beads)
Details: membranes from HEK293 cells transiently transfected with human V1a receptor, Ki calculated from IC50 by the Cheng-Prussoff equation, read-out: pKi (hV1a) (converted)
Protocol: The human V1a receptor was cloned by RT-PCR from total human liver RNA. The coding sequence was subcloned in an expression vector after sequencing to confirm the identity of the amplified sequence. […] Cell membranes were prepared from HEK293 cells transiently transfected with the expression vector and grown in 20 liter fermenters with the following protocol. […]
readoutType: Ki (nM)
Write down the numeric answer in nM and omit the unit.

Cc1nccnc1[C@H]1CC[C@H](c2nnc3n2-c2ccc(Cl)cc2CN(C)C3)CC1
5.13

Task: Report Ki, nothing else, for this compound: CC(C)(C)OC(=O)N1Cc2cc(Cl)ccc2-n2c(nnc2[C@H]2CC[C@H](c3cnccn3)CC2)C1
Output: 0.603

Task: Using known records, supply Ki for Fc1cccnc1[C@H]1CC[C@H](c2nnc3n2-c2ccc(Cl)cc2CN(C2CCC2)C3)CC1
Output: 0.302

Task: Specify reported Ki for the compound shown: Cc1cc(C)nc([C@H]2CC[C@H](c3nnc4n3-c3ccc(Cl)cc3CN(C)C4)CC2)n1
Output: 2.29

###

Molecular target: human V1a receptor (Homo sapiens, UniProt P37288)
Construct: expressed in transfected cells; host or cells: HEK293 cells, transiently transfected; cell membranes
Sequence (P37288 whole entry): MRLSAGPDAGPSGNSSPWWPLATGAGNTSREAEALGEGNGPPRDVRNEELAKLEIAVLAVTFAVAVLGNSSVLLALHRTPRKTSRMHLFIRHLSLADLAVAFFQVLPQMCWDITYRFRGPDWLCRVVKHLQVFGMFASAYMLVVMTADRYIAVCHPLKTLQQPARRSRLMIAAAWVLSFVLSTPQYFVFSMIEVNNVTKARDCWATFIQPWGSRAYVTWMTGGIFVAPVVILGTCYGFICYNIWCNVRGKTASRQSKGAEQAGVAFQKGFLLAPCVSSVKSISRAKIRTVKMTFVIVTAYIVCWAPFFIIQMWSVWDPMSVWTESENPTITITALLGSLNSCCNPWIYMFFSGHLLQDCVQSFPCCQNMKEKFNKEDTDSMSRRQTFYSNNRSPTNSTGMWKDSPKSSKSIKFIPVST
Assay: human V1a receptor binding studies (3H-Vasopressin, SPA beads)
Conditions: membranes from HEK293 cells transiently transfected with human V1a receptor, Ki calculated from IC50 by the Cheng-Prussoff equation, read-out: pKi (hV1a) (converted)
Counter-ions that a name gives are not always drawn.
readoutType: Ki
Provide a numeric answer, followed by its unit.

Recorded results for 2 molecules are shown here.
O=C(CO)N1Cc2cc(Cl)ccc2-n2c(nnc2[C@H]2CC[C@H](c3ncccc3F)CC2)C1
2.29 nM
CC(C)c1cccc([C@H]2CC[C@H](c3nnc4n3-c3ccc(Cl)cc3CNC4)CC2)n1 [Example 11, hydrochloride]
70.8 nM

Task: Please report the measured Ki for Clc1ccc2c(c1)CNCc1nnc([C@H]3CC[C@@H](c4ncccn4)CC3)n1-2
Output: 427 nM

Task: Output measured Ki for this item: CC(C)(C)OC(=O)N1Cc2cc(F)ccc2-n2c(nnc2[C@H]2CC[C@H](c3ncccc3F)CC2)C1
Output: 0.525 nM

###

Target: human V1a receptor (Homo sapiens, UniProt P37288)
Construct: expressed in transfected cells; host or cells: HEK293 cells, transiently transfected; cell membranes
Assay: human V1a receptor binding studies (3H-Vasopressin, SPA beads)
Conditions: membranes from HEK293 cells transiently transfected with human V1a receptor, Ki calculated from IC50 by the Cheng-Prussoff equation, read-out: pKi (hV1a) (converted)
Structures can show the parent of a compound that is named as a salt.
Binarize Ki at 7 nM; below is 1.0, at or above is 0.0.

Cc1nccc([C@H]2CC[C@H](c3nnc4n3-c3ccc(Cl)cc3CN(C(=O)OC(C)(C)C)C4)CC2)n1
0.0
Clc1ccc2c(c1)CNCc1nnc([C@H]3CC[C@H](c4cccnc4Cl)CC3)n1-2
0.0
Fc1ncccc1[C@H]1CC[C@H](c2nnc3n2-c2ccc(Cl)cc2CNC3)CC1
0.0

Task: Please check: Ki for CCc1cccc([C@H]2CC[C@H](c3nnc4n3-c3ccc(Cl)cc3CNC4)CC2)n1 , strictly under 7 nM or not?
Output: 0.0

Task: Hi there! Is Ki for Cc1cc(C)nc([C@H]2CC[C@H](c3nnc4n3-c3ccc(Cl)cc3CNC4)CC2)n1 [Example 64, hydrochloride] below 7 nM, do you know?
Output: 0.0

Task: Dear reviewer, please state whether CC(=O)N1Cc2cc(Cl)ccc2-n2c(nnc2[C@H]2CC[C@H](c3ncccc3F)CC2)C1 has Ki strictly beneath 7 nM.
Output: 1.0

Task: Find out if reported Ki for Cc1cnc(C)c([C@H]2CC[C@H](c3nnc4n3-c3ccc(Cl)cc3CN(C)C4)CC2)n1 is less than 7 nM
Output: 0.0

Task: Decide: Ki of CC(C)(C)OC(=O)N1Cc2cc(Cl)ccc2-n2c(nnc2[C@H]2CC[C@H](c3ncccc3F)CC2)C1 strictly below 7 nM?
Output: 1.0

Task: Quick check: Ki of Clc1ccc2c(c1)CNCc1nnc([C@H]3CC[C@H](c4cc(Cl)ccn4)CC3)n1-2 under 7 nM?
Output: 1.0
